Test system: SNB-19 CNS
Experiment: NCI-60 one-dose screen, 48 h (100 = growth as untreated, 0 = no growth, -100 = all killed)
Conditions: 10 µM unless noted
Protocol: Growth inhibition of the SNB-19 human tumor cell line is measured as a screen for anti-cancer activity. Cells are grown in 96 well plates and exposed to the test compound for 48 hours. Compounds are tested at a single concentration, which is 10^-5 M for most compounds. The reported endpoint is percent growth (GI% or GIPRCNT), where numbers from 0 - 100% represent growth inhibition, and numbers from -100% - 0 represent cell death. For example, a value of 40 represents 60% growth inhibition. […]
About 83,000 compounds went through this panel and 20% of them were active in at least one assay; those are over-represented in the sample as a whole.
Label satisfied when growth is strictly below 80%; at or above that, label not satisfied.

Ask: Consider the compound `O=C1Nc2c(ccc(Cl)c2Cl)/C1=C/c1ccccn1` . Is its growth strictly less than 80%?
Result: not satisfied

Ask: Consider the compound `COc1cc2nc(Cc3ccc(C)cc3)[nH]c(=O)c2cc1OC` . Is its growth strictly less than 80%?
Result: not satisfied

Ask: Consider the compound `CC(=O)c1cc2c(N)c(C(=O)Nc3cncc4ccccc34)sc2nc1C` . Is its growth strictly less than 80%?
Result: not satisfied

Ask: Consider the compound `Cc1ccc(C(c2c(O)c3cc(Br)ccc3[nH]c2=O)c2c(O)c3cc(Br)ccc3[nH]c2=O)cc1` . Is its growth strictly less than 80%?
Result: not satisfied

Ask: Consider the compound Brc1ccc(C2CC(c3cccc(Nc4ccncc4)c3)=NN2c2ccccc2)cc1 (stereo not given) . Is its growth strictly less than 80%?
Result: not satisfied

Ask: Consider the compound CC(=O)N1N=C(c2cccc(Nc3ccncc3)c2)CC1c1ccccc1 (stereo not given) . Is its growth strictly less than 80%?
Result: not satisfied

Next:
Ask: Consider the compound CC(C)Cc1ccc(C(C)C(=O)NCc2ccc(Cn3c(=O)sn(-c4ccc(Cl)cc4)c3=O)cc2)cc1 (stereo not given) . Is its growth strictly less than 80%?
Result: not satisfied

Ask: Consider the compound `Nc1cc(N)c2cccnc2c1O` . Is its growth strictly less than 80%?
Result: satisfied

Ask: Consider the compound `COc1cc(/C=C/C(=O)c2ccc(Nc3ncnc4ccccc34)cc2)cc(OC)c1` . Is its growth strictly less than 80%?
Result: satisfied

Ask: Consider the compound `COc1cccc2cc(-c3cc4ccccc4[nH]3)/c(=N/C(=S)Nc3ccc(C)cc3)oc12` . Is its growth strictly less than 80%?
Result: satisfied

Ask: Consider the compound `CCOc1ccc(/C=N/Nc2cc(C)nc3ccc(Cl)cc23)cc1` . Is its growth strictly less than 80%?
Result: satisfied

Ask: Consider the compound `CCSc1ccc2c(c1)N(CCCN1CCN(C)CC1)c1ccccc1S2` . Is its growth strictly less than 80%?
Result: satisfied

----------
system: HCT-116 colon; test: NCI-60 one-dose screen, 48 h; conditions: 10 µM unless noted
About 83,000 compounds went through this panel and 20% of them were active in at least one assay; those are over-represented in the sample as a whole. Calls of active or inactive are those of the source. Rule for the calls: active = growth percent below 10; inactive = the rest.
Pick one: active, inactive

Ask: Query: recorded result category for `O=C1Nc2c(ccc(Cl)c2Cl)/C1=C/c1ccc([N+](=O)[O-])cc1` in this test
Result: inactive

Ask: Query: recorded result category for `CC1(C)CN(c2cnc(C(=O)Nc3cc(F)cc4cccnc34)cn2)CCN1` in this test
Result: inactive

Ask: Query: recorded result category for `CCOC(=O)c1cnc2c(cnn2CC)c1NN=C(C)C` in this test
Result: inactive

Next:
Ask: Query: recorded result category for `COc1ccccc1Nc1cc(O)c2c(=O)cc(-c3ccccc3)oc2c1` in this test
Result: inactive

Ask: Query: recorded result category for `CCc1nc(C)cn1C(=O)OCc1nc2nc(Cl)nc(N3CCOCC3)c2[nH]1` in this test
Result: active

Ask: Query: recorded result category for `COc1ccc(/C(C)=N/NC(=O)CSc2nc3ccccc3c(=O)n2Cc2ccc(S(N)(=O)=O)cc2)c(OC)c1` in this test
Result: inactive

Ask: Query: recorded result category for CCN(CC)CCCC(Nc1c2ccc(Cl)cc2nc2ccc(OC)cc12)c1ccc(Cl)cc1 (stereo not drawn) in this test
Result: active

Ask: Query: recorded result category for `C#CC(=O)Nc1cccc2c1cc(C)n2-c1nc2c(c(NCc3ccccc3)n1)CCCC2` in this test
Result: active
